# PBM binding z-score values compiled below
tested on: PPARg:RXRa 90nM:30nM, anti-RXR (NR concentration 90 nM, RXRa partner concentration 30 nM); experiment: PBM binding z-score (relative to random genomic background probes); higher = stronger binding; sequences stand for … in GC…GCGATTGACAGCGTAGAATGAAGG
Number only, please.

Request: Kindly state the measured PBM binding z-score obtained for `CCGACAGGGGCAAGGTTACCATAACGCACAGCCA` with PPARg:RXRa 90nM:30nM, anti-RXR (NR concentration 90 nM, RXRa partner concentration 30 nM).
Result: 0.378

Request: Kindly state the measured PBM binding z-score obtained for `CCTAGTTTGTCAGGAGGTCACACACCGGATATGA` with PPARg:RXRa 90nM:30nM, anti-RXR (NR concentration 90 nM, RXRa partner concentration 30 nM).
Result: 2.39

Request: Kindly state the measured PBM binding z-score obtained for `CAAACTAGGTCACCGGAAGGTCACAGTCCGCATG` with PPARg:RXRa 90nM:30nM, anti-RXR (NR concentration 90 nM, RXRa partner concentration 30 nM).
Result: 7.55

Request: Kindly state the measured PBM binding z-score obtained for `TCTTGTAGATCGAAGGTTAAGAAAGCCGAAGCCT` with PPARg:RXRa 90nM:30nM, anti-RXR (NR concentration 90 nM, RXRa partner concentration 30 nM).
Result: 5.26

Request: Kindly state the measured PBM binding z-score obtained for `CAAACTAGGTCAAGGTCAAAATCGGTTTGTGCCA` with PPARg:RXRa 90nM:30nM, anti-RXR (NR concentration 90 nM, RXRa partner concentration 30 nM).
Result: 7.81

Request: Kindly state the measured PBM binding z-score obtained for `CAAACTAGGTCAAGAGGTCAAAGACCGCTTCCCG` with PPARg:RXRa 90nM:30nM, anti-RXR (NR concentration 90 nM, RXRa partner concentration 30 nM).
Result: 8.62

Request: Kindly state the measured PBM binding z-score obtained for `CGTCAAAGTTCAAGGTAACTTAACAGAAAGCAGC` with PPARg:RXRa 90nM:30nM, anti-RXR (NR concentration 90 nM, RXRa partner concentration 30 nM).
Result: 3.84

Request: Kindly state the measured PBM binding z-score obtained for `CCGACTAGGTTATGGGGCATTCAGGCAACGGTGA` with PPARg:RXRa 90nM:30nM, anti-RXR (NR concentration 90 nM, RXRa partner concentration 30 nM).
Result: 3.95

Request: Kindly state the measured PBM binding z-score obtained for `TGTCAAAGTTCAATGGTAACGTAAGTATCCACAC` with PPARg:RXRa 90nM:30nM, anti-RXR (NR concentration 90 nM, RXRa partner concentration 30 nM).
Result: 6.12

Request: Kindly state the measured PBM binding z-score obtained for `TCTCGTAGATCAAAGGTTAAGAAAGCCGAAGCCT` with PPARg:RXRa 90nM:30nM, anti-RXR (NR concentration 90 nM, RXRa partner concentration 30 nM).
Result: 6

Request: Kindly state the measured PBM binding z-score obtained for `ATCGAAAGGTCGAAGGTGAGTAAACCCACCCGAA` with PPARg:RXRa 90nM:30nM, anti-RXR (NR concentration 90 nM, RXRa partner concentration 30 nM).
Result: 4.14

Request: Kindly state the measured PBM binding z-score obtained for `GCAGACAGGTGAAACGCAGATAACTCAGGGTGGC` with PPARg:RXRa 90nM:30nM, anti-RXR (NR concentration 90 nM, RXRa partner concentration 30 nM).
Result: -0.137

Request: Kindly state the measured PBM binding z-score obtained for `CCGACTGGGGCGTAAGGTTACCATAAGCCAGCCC` with PPARg:RXRa 90nM:30nM, anti-RXR (NR concentration 90 nM, RXRa partner concentration 30 nM).
Result: 1.7

# credit: the supplement of paper PMC6555819
